- subject-of-test: ERα (Homo sapiens, UniProt P03372)
- Construct: host or cells: MCF7
- Sequence (P03372 1-595): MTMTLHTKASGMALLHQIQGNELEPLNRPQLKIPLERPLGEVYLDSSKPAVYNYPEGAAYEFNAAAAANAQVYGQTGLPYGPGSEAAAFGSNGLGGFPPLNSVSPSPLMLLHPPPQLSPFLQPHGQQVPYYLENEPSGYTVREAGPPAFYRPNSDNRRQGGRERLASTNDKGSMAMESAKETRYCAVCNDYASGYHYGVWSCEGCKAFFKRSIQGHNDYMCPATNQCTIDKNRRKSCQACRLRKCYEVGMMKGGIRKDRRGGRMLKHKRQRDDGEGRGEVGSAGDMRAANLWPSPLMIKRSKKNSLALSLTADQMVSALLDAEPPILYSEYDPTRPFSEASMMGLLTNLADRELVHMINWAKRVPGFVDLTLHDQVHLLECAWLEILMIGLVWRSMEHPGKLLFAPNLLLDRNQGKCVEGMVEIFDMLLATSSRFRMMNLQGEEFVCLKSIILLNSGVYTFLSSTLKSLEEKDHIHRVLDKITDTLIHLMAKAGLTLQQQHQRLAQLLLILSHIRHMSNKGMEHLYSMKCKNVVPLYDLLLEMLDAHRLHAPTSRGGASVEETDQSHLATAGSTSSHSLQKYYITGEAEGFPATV
- method-summary: Estrogen receptor degradation activity: breast cancer cell ERα in cell western assay (MCF7 cells)
- Type: cell-based
- conditions: 0.3 μM, 4 hours, relative to fulvestrant 0.1 μM positive control
- Description: Test: Estrogen Receptor Degradation Activity Said test involves measuring the in vitro degradation activity of the compounds of the Table 1a. The measurements of the degradation activities were made using a breast cancer cell ERα in cell western assay as described hereunder. […] Integrated intensities in the green fluorescence and red fluorescence were measured to determine the levels of ERα and DNA respectively. […]
assay-endpoint: % Degradation At 0.3 μM (%)

> print(dat)
                                    compound           assay.endpoint  unit.string  assay.result
 1  COC(c1ccc(C2=C(c3ccc(Cl)cc3Cl)CCCc3cc(C(=O)O)ccc32)cc1)C1CN(CCCF)C1 (single isomer, unassigned; isomer 2) [Example 228]  % Degradation At 0.3 μM            %            76
 2  CC(C)C1CCc2cc(C(=O)O)ccc2C(c2ccc(CC3CN(CCCF)C3)cc2)=C1c1ccc(Cl)cc1Cl (single isomer, unassigned) [Example 321]  % Degradation At 0.3 μM            %            88
 3  O=C(O)c1c(F)cc2c(c1F)CCCC(c1ccc(Cl)cc1Cl)=C2c1ccc(CC2CN(CCCF)C2)cc1  % Degradation At 0.3 μM            %            82
 4  CC(C)C1CCc2cc(C(=O)O)ccc2C(c2ccc(CC3CN(CCCF)C3)cc2)=C1c1ccc(Cl)cc1 (racemic)  % Degradation At 0.3 μM            %            87
 5  CCC1CCc2cc(C(=O)O)ccc2C(c2ccc(CC3CN(CCCF)C3)cc2)=C1c1ccc(Cl)cc1 (racemic) [Example 315]  % Degradation At 0.3 μM            %            87
 6  O=C(O)c1ccc2c(c1)CCCC(CC1CCC1)=C2c1ccc(CC2CN(CCCF)C2)cc1  % Degradation At 0.3 μM            %            92
 7  CC1CCc2cc(C(=O)O)ccc2C(c2ccc(CC3CN(CCCF)C3)cc2)=C1c1cccc(C(F)(F)F)c1 (racemic)  % Degradation At 0.3 μM            %            87
 8  COc1c(C(=O)O)ccc2c1CCCC(c1ccc(F)cc1C(F)(F)F)=C2c1ccc(CC2CN(CCCF)C2)cc1.Cl  % Degradation At 0.3 μM            %            90
 9  Cc1cc(F)ccc1C1=C(c2ccc(CC3CN(CCCF)C3)cc2)c2ccc(C(=O)O)cc2CCC1  % Degradation At 0.3 μM            %            89
10  O=C(O)c1ccc2c(c1Cl)CCCC(c1ccc(Cl)cc1Cl)=C2c1ccc(CC2CN(CCCF)C2)cc1  % Degradation At 0.3 μM            %            97
11  O=C(O)c1c(F)cc2c(c1F)CCCC(c1ccc(F)cc1Cl)=C2c1ccc(CC2CN(CCCF)C2)cc1  % Degradation At 0.3 μM            %            83
12  O=C(O)c1ccc2c(c1)CCCC(c1cccc(C(F)(F)F)c1Cl)=C2c1ccc(CC2CN(CCC(F)F)C2)cc1  % Degradation At 0.3 μM            %            88
13  O=C(O)c1ccc2c(c1)CCCC(c1ccc(Cl)cc1C(F)F)=C2c1ccc(CC2CN(CCCF)C2)cc1  % Degradation At 0.3 μM            %            91
14  Cc1c(Cl)cccc1C1=C(c2ccc(CC3CN(CCC(F)F)C3)cc2)c2ccc(C(=O)O)cc2CCC1  % Degradation At 0.3 μM            %            86
15  Cc1c(C2=C(c3ccc(CC4CN(CCCF)C4)cc3)c3ccc(C(=O)O)cc3CCC2C)cccc1C(F)(F)F (racemic)  % Degradation At 0.3 μM            %            85
16  Cc1c(F)cccc1C1=C(c2ccc(CC3CN(CCCF)C3)cc2)c2ccc(C(=O)O)cc2CCC1  % Degradation At 0.3 μM            %            93
17  Cc1ccc(C2=C(c3ccc(CC4CN(CCCF)C4)cc3)c3ccc(C(=O)O)cc3CCC2)c(F)c1F.Cl  % Degradation At 0.3 μM            %            88
18  O=C([O-])c1ccc2c(c1)CCCC(C1=C[C@@H]3CCC[C@@H]3C1)=C2c1ccc(CC2CN(CCCF)C2)cc1.[Na+] (relative stereo)  % Degradation At 0.3 μM            %            90
19  O=C(O)c1ccc2c(c1)CCCC(c1cccc(Cl)c1C(F)(F)F)=C2c1ccc(CC2CN(CCCF)C2)cc1  % Degradation At 0.3 μM            %            90
20  COc1cc(C2=C(c3ccc(CC4CN(CCCF)C4)cc3)c3ccc(C(=O)[O-])cc3CCC2)cc(C(F)(F)F)n1.[Na+]  % Degradation At 0.3 μM            %            84
21  O=C([O-])c1ccc2c(c1)OCCC(c1ccc(F)cc1Cl)=C2c1ccc(CC2CN(CCCF)C2)cc1.[Na+]  % Degradation At 0.3 μM            %            95
22  Oc1ccc2c(c1)CCCC(c1ccc(Cl)cc1Cl)=C2c1ccc(CC2CN(CCCF)C2)cc1  % Degradation At 0.3 μM            %            85
23  COc1c(F)cccc1C1=C(c2ccc(CC3CN(CCCF)C3)cc2)c2ccc(C(=O)O)cc2CCC1  % Degradation At 0.3 μM            %            93
24  Cl.O=C(O)c1ccc2c(c1)CCCC(c1ccc(F)c3c1CCC3)=C2c1ccc(CC2CN(CCCF)C2)cc1  % Degradation At 0.3 μM            %            93
25  O=C(O)c1ccc2c(c1)CCCC(c1c(F)cccc1C(F)(F)F)=C2c1ccc(CC2CN(CCCF)C2)cc1  % Degradation At 0.3 μM            %            89
26  Cc1c(C2=C(c3ccc(CC4CN(CCC(F)F)C4)cc3)c3ccc(C(=O)O)cc3CCC2)cccc1C(F)(F)F  % Degradation At 0.3 μM            %            86
27  Cc1ccc(C2=C(c3ccc(CC4CN(CCCF)C4)cc3)c3ccc(C(=O)O)cc3CCC2)c(F)c1.Cl  % Degradation At 0.3 μM            %            91
28  O=C(O)c1ccc2c(c1)CCCC(c1cnccc1C(F)(F)F)=C2c1ccc(CC2CN(CCCF)C2)cc1  % Degradation At 0.3 μM            %            86
